# collection of EC50 values tested on human FSH receptor (Homo sapiens, UniProt P23945)

In: Reported EC50 for COc1cc2c(cc1OC(C)C)-c1c(c(C(=O)N(C)C(C)(C)C)nn1-c1ccc(C)cc1)CC2 [Example 13ca] : what is it?
Out: 1000 to 10000 nM

In: Request the reported EC50 associated with COc1cc2c(cc1OC(C)C)-c1c(c(C(=O)N(C)C(C)(C)C)nn1-c1cccc([N+](=O)[O-])c1)CC2 [Example 8ca]
Out: 1000 to 10000 nM

In: So what does the record say about EC50 for COc1cc2c(cc1OC(C)C)-c1c(c(C(=O)N(C)C(C)(C)C)nn1-c1ccccc1C)CC2 [Example 10ca] ?
Out: 1000 to 10000 nM

In: Can you look up the measured EC50 of C=Cc1ccccc1-n1nc(C(=O)N(C)C(C)(C)C)c2c1-c1cc(OC(C)C)c(OC)cc1CC2 [Example 9cc] for me?
Out: 1000 to 10000 nM

In: Any idea what its EC50 is? The compound is COc1cc2c(cc1OC)-c1c(c(C(=O)N3CCCN(C(C)=O)CC3)nn1-c1ccsc1)CC2 [Example 14e]
Out: 1000 to 10000 nM

More entries:
In: Field request: EC50 | item: COc1cc2c(cc1OC(C)C)-c1c(c(C(=O)N(C)C(C)(C)C)nn1-c1ccccc1Br)CC2 [Example 9ca]
Out: 100 to 1000 nM

In: Reported EC50 for COc1cccc(-n2nc(C(=O)N(C)C(C)(C)C)c3c2-c2cc(OC(C)C)c(OC)cc2CC3)c1 [Example 8cc] : what is it?
Out: 100 to 1000 nM

---

Target protein (sequence): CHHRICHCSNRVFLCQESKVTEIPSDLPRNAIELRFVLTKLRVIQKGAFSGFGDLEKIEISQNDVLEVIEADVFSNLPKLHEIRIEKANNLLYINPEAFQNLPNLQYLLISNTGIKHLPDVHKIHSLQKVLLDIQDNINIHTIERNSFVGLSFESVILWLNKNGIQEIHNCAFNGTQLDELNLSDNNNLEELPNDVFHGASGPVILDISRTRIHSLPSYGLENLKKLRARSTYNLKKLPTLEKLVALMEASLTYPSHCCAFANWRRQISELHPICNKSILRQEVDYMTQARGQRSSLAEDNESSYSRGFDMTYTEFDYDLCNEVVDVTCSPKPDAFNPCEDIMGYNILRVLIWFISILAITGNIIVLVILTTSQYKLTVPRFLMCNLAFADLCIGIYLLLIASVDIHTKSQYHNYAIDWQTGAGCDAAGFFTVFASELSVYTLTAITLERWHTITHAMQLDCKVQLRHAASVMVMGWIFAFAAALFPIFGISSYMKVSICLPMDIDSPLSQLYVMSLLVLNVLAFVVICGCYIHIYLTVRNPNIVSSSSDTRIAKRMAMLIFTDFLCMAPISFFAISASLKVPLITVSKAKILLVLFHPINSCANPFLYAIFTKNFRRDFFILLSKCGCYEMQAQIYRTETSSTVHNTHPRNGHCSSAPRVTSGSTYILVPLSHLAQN
READOUT_NAME: EC50

Illustrative cases are given below, each with its answer.
In: // returns reported EC50 for input COc1cc2c(cc1NC(=O)CN1CCC1)-c1c(c(C(=O)N(C)C(C)(C)C)nn1-c1cccc(C)c1)CC2 [Example 12jd]
Out: 1000 to 10000 nM

In: Which value of EC50 has been reported for COc1cc2c(cc1OC(C)C)-c1c(c(C(=O)N(C)C(C)(C)C)nn1-c1cccc(F)c1)CC2 in the records?
Out: 100 to 1000 nM

In: // query EC50 value for entry COc1cc2c(cc1OC(C)C)-c1c(c(C(=O)N(C)C(C)(C)C)nn1-c1cccc(C)c1)CC2
Out: 100 to 1000 nM

In: What EC50 value was documented for this molecule, COc1cc2c(cc1NC(=O)CN1CCOCC1)-c1c(c(C(=O)N(C)C(C)(C)C)nn1-c1cccc(C)c1)CC2 [Example 12jb] ?
Out: 1000 to 10000 nM

In: Using the record for COc1cc2c(cc1-c1ncco1)-c1c(c(C(=O)N(C)C(C)(C)C)nn1-c1ccccc1Cl)CC2 [Example 11ga] , report its EC50.
Out: 1000 to 10000 nM

More entries:
In: Recorded EC50 of COc1cc2c(cc1OC)-c1c(c(C(=O)N3CCCN(C(C)=O)CC3)nn1-c1ccc(F)cc1)CC2 , please.
Out: 1000 to 10000 nM

In: Sample COc1cc2c(cc1OC(C)C)-c1c(c(C(=O)N(C)C(C)(C)C)nn1-c1ccc(Cl)cc1)CC2 [Example 13ce] — what was its EC50?
Out: 100 to 1000 nM

---

pEC50: −log10 of the molar value.
So I've got pEC50 readings for human FSH receptor (Homo sapiens), take a look.

Completed entries (count: 4):
In: What measured pEC50 goes with COc1cc2c(cc1OC)-c1c(c(C(=O)N3CCCN(C(=O)C4CCC4)CC3)nn1-c1ccc(F)cc1)CC2 ?
Out: 6.00 to 7.00

In: What value of measured pEC50 is listed for COc1cc2c(cc1NC(=O)c1cocn1)-c1c(c(C(=O)N(C)C(C)(C)C)nn1-c1cccc(C)c1)CC2 [Example 12g] ?
Out: 5.00 to 6.00

In: What measured pEC50 goes with C=Cc1cccc(-n2nc(C(=O)N(C)C(C)(C)C)c3c2-c2cc(OC(C)C)c(OC)cc2CC3)c1 ?
Out: 6.00 to 7.00

In: # lookup: pEC50 of COc1cc2c(cc1OC(C)C)-c1c(c(C(=O)N(C)C(C)(C)C)nn1-c1ccc(Br)cc1)CC2 [Example 13cf]
Out: 5.00 to 6.00

---
In: // pEC50 lookup, key: COc1cc2c(cc1OC(C)C)-c1c(c(C(=O)N(C)C(C)(C)C)nn1-c1ccccc1OC)CC2 [Example 10cc]
Out: 5.00 to 6.00

In: Which measured pEC50 value corresponds to CC=Cc1ccccc1-n1nc(C(=O)N(C)C(C)(C)C)c2c1-c1cc(OC(C)C)c(OC)cc1CC2 ?
Out: 5.00 to 6.00

In: Recorded pEC50 for COc1cc2c(cc1NC(=O)CN(C)C)-c1c(c(C(=O)N(C)C(C)(C)C)nn1-c1cccc(C)c1)CC2 [Example 12jc] , please?
Out: 5.00 to 6.00

---

- ASSAY_SYSTEM: human FSH receptor (Homo sapiens);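 also: CHO cells stably expressing human FSH receptor with CRE-driven firefly luciferase, luminescence read as counts per second after 4 h compound exposure in 1% DMSO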
- Sequence (P23945 18-695): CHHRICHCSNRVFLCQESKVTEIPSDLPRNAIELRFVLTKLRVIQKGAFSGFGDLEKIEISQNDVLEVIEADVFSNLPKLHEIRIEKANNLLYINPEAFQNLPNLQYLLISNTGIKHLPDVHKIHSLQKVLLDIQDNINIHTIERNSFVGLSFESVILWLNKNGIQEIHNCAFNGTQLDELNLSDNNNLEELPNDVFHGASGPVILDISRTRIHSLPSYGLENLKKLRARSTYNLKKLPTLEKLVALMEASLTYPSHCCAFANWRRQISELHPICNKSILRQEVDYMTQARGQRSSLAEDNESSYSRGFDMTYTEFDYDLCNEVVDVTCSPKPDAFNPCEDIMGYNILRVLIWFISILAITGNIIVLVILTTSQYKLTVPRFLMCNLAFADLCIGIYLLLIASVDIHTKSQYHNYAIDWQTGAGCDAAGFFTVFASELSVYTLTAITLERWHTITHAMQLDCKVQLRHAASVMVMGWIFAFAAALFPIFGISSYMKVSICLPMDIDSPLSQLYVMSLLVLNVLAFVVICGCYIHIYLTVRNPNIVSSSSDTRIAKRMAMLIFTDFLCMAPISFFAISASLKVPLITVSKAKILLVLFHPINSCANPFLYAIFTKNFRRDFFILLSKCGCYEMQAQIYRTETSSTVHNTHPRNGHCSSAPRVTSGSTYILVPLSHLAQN
READOUT_NAME: EC50

In: Item under review: COc1cc2c(cc1OC(C)C)-c1c(c(C(=O)N(C)C(C)(C)C)nn1-c1ccc(F)cc1)CC2 [Example 13cd] . Reported EC50?
Out: 100 to 1000 nM

In: EC50 lookup needed for COc1cc2c(cc1OC(C)C)-c1c(c(C(=O)N(C)C(C)(C)C)nn1-c1ccccc1-c1ccoc1)CC2 , thanks.
Out: 1000 to 10000 nM

In: Return reported EC50; argument: COc1cc2c(cc1OC(C)C)-c1c(c(C(=O)N(C)C(C)(C)C)nn1-c1cccc(C3CC3)c1)CC2
Out: 100 to 1000 nM

Further cases:
In: Reported EC50, molecule COc1cc2c(cc1NS(C)(=O)=O)-c1c(c(C(=O)N(C)C(C)(C)C)nn1-c1cccc(C)c1)CC2 [Example 12h] : ____
Out: 1000 to 10000 nM

In: Requested read-out: EC50. Entry: C=C(C)c1cccc(-n2nc(C(=O)N(C)C(C)(C)C)c3c2-c2cc(OC(C)C)c(OC)cc2CC3)c1
Out: 1000 to 10000 nM

In: What measured EC50 goes with C=CCc1cccc(-n2nc(C(=O)N(C)C(C)(C)C)c3c2-c2cc(OC(C)C)c(OC)cc2CC3)c1 ?
Out: 1000 to 10000 nM

In: Using the record for COc1cc2c(cc1OC(C)C)-c1c(c(C(=O)N(C)C(C)(C)C)nn1-c1cccnc1)CC2 , report its EC50.
Out: 100 to 1000 nM
